Attribution: patent US20220177589A1

Entries and their AntiCD3/CD28 (CD69+ CD4 T cells) repeat 1, % inhibition
# TARGET ENTITY: chimeric BTLA of humanised-BTLA mice (human extracellular region, murine transmembrane and signaling … (human; mouse, UniProt Q7TSA3 184-306, limits assumed)
# Sequence (Q7TSA3 other isoform, or with tags, fused parts or gaps mutant limits assumed): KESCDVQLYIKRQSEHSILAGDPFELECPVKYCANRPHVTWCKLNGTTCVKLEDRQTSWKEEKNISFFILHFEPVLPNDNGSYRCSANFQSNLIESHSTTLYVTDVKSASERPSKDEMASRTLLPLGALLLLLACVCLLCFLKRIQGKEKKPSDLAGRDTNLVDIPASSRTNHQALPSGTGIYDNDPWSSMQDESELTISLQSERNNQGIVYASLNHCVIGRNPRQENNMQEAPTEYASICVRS
# METHOD NOTES: cell-based or functional assay
Your answer is read as %, so omit the unit and give the number.

Query: Tell me measured AntiCD3/CD28 (CD69+ CD4 T cells) repeat 1, % inhibition for 15B6 (antibody, IgG1, V domains shown) VH: QVQLQQPGAELVKPGASVKLSCKASGYTFTSYWMHWVKQRPGQGLEWIGMIHPNSGSTNYNEKFKSKATLTVDKSSSTAYMQLSSLTSEDSAVYYCARKRGGLGDYWGQGTSVTVSS VL: DIVLTQSPASLAVSLGQRATISCRASKSVSTSGYSYMHWYQQKPGQPPKLLIYLASNLESGVPARFSGSGSGTDFTLNIHPVEEEDAATYYCQHSRELPYTFGGGTKLEIK please.
Response: 13

Query: Specify reported AntiCD3/CD28 (CD69+ CD4 T cells) repeat 1, % inhibition for the binder shown: 24H7 (antibody, IgG1, V domains shown) VH: QVQLQQSGAELVRPGASVTLSCKASGYTFTDYEIHWVKQTLVHGLEWIGPIDPDTGNTAYNQNLKGKAILTADKSSSTAYMELRSLTSEDSAVYYCTRGGYDSDWGFAYWGQGTLVTVSA VL: DIVMTQATPSVPVTPGESVSISCRSSKSLLHSNGNTFLFWFLQRPGQSPQLLIYRMSDLASGVPDRFSGSGSGTAFTLRISRVEAEDVGIYYCMQHLEYPFTFGSGTKLEIK
Response: 52

Query: Respond only with AntiCD3/CD28 (CD69+ CD4 T cells) repeat 1, % inhibition recorded for 14D4 (antibody, IgG1, V domains shown) VH: QVQLQQPGAELVKPRASVKLSCKASGYTFTSYWMHWVKQRPGQGLEWIGMIHPNNGIPNYNEKFKSKATLTVDKSSTTAYMQLSSLTSEDSAVYHCAREGYYGSEGYFDVWGTGTTVTVSS VL: QIVLTQSPAIMSASPGEKVTMTCSASSSISYIHWYQQKPGTSPKRWIYDTSKLASGVPARFSGSGSGTSYSLTISSMEAEDAATYYCHQRSTYPYTFGGGTKLEIK
Response: 43
